Data origin, for the record: patent US20160264664A1

tgt: T1, mouse P2X7 (mouse, UniProt Q9Z1M0 1-595)
T1 construct: on transfected CHO or Hek293 cells, or endogenous on Yac-1 cells; also called mP2X7; mouse purinoceptor P2X7
T1 sequence: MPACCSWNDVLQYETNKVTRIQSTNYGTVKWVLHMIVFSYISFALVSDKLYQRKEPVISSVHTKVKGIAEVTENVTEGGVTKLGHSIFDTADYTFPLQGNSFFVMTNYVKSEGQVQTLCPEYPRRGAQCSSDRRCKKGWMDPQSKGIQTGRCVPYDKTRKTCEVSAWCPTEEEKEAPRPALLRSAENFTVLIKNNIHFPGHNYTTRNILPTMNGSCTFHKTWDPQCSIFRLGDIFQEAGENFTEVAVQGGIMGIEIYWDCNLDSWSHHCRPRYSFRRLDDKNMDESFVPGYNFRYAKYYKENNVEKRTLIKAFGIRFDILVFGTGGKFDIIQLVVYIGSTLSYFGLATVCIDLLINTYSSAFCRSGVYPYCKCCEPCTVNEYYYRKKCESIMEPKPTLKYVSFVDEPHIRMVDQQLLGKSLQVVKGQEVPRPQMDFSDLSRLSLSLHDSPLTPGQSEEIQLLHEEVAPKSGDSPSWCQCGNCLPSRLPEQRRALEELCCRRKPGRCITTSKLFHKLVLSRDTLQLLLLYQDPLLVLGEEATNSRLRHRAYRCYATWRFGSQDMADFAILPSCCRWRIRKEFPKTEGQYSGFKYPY
protocol-text: flow cytometry, periplasmic extract pre-incubated with anti-myc-FITC, on mP2X7-Hek293 cells;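 also: periplasmic extract diluted 10-fold and premixed 45 min at 4 °C with FITC anti-myc antibody, giving pseudo-bivalent Nanobodies, before binding to the cells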
readout-label: MFI FACS (pre-Myc incubation)
Please don't drop the unit; write it after the number.

P2X7PMP8E6 (VHH, family 5, 2; on phage or c-myc/His6-tagged in assays) VHH: EVQLVESGGGLVQAGGPLRLSCAASGNFFRVNTMAWYRQAPGKQRELVADITRGDRTNYADTVNGRFTISRDNVRNTVYLQMNGLKPEDTAAYYCYARIELGVLEPRDYWGQGTQVTVSS : 69 MFI
P2X7PMP20C9 (VHH, family 2; on phage or c-myc/His6-tagged in assays) VHH: EVQLVESGGGLVQTGGSLRLSCAASGFTLDDYAIAWFRQAPGKEREGVSILSSIGKTFYADSAKDRFSITADGAKTTVFLQMNSLKPEDTAIYYCVAGHFVYNDGAISLNTARGSGFWGQGTQVTVSS : 97 MFI
P2X7PMP8H10 (VHH, family 5, 3; on phage or c-myc/His6-tagged in assays) VHH: EVQLVESGGGLVQAGGSLRLSCAASGSFFRVNNMAWYRQGPGKQRELVADITRGDRTNYADSVNGRFTISRDNVRNTVYLQMNGLKPEDTAVYYCYATIELGVLEPRDYWGQGTQVTVSS : 94 MFI

// switching to the query binder
// fetch MFI FACS (pre-Myc incubation) given entry P2X7PMP8H6 (VHH, family 5, 2; on phage or c-myc/His6-tagged in assays) VHH: EVQLVESGGGLVQAGGSLRLSCAASGSFFRVNNMAWYRQAPGKQRELVADITRGDRTNYADSVNGRFTISRDNVRNTVYLQMNGLKPEDTAVYYCYARIELGPLVPRDYWGQGTQVTVSS
43 MFI
